Tested on: ACHN renal
Experiment: NCI tumour cell line growth inhibition, 48 h
Where a SMILES comes first, the peptide text is derived from it. The star is where a group is joined. Fmoc = O=C(OCC1c2ccccc2-c2ccccc21)*; OtBu = CC(C)(C)O*
READOUT KIND: TGI

INSERT INTO assay_data (molecule, readout_kind, observed) VALUES
  ('C/C=C(\C)c1cc(=O)c2c(C)cc3c(c2o1)C(=O)c1c(O)c(C2CC(C)(N(C)C)C(OC(C)=O)C(C)O2)cc(C2CC(N(C)C)C(O)C(C)O2)c1C3=O (stereo unspecified)', 'TGI', '10 µM'),
  ('CSC12c3cc(C)n(-c4ccc([N+](=O)[O-])cc4)c3CC(C)(C)CN1C(=O)C2Oc1ccccc1 (stereo unspecified)', 'TGI', '> 100 µM'),
  ('COc1ccc(/C=C\c2cc(OC)c(OC)c(OC)c2)cc1OCC(=O)Nc1nc2ccc(F)cc2s1', 'TGI', '> 100 µM'),
  ('CCOC(=O)Cc1c(C)c2cc(C(=O)c3ccccc3)c(O)cc2oc1=O', 'TGI', '> 100 µM'),
  ('Cc1ccc(C)c(N2C(=O)C(=O)C(c3nc4ccccc4s3)/C(=N/N)C2=O)c1 (stereo unspecified)', 'TGI', '> 100 µM');

Provide each entry's TGI from the list below.
1. COc1ccc(C(=O)C(CN(C)C)CN(C)C)cc1
2. COC1CCC(OS(C)(=O)=O)C(CO)O1 (stereo unspecified)
3. CCOC(=O)C1(C#N)OC(=O)c2cnccc21 (stereo unspecified)
4. C=C(C)[C@H]1CC[C@@]2(C)C(C1)[C@H](C)CC[C@@H]2O (stereo partly specified)
5. O=c1oc2ccc3ccccc3c2cc1-c1nnc(Nc2ccccc2)s1
6. O=C1NC(=C(Cl)Cl)/C(=N/S(=O)(=O)N2CCCCC2)N1

Solution:
["2.93 µM", "> 100 µM", "> 100 µM", "> 100 µM", "27.2 µM", "3.42 µM"]

Give TGI for all molecules that follow.
1. O=C(Nc1ccc(C(F)(F)F)cc1)NC(F)(F)F
2. CCOC(=O)Cc1csc(NC(NC(=O)OCC)(C(=O)OCC)C(F)(F)F)n1 (stereo unspecified)
3. C=CSCCC(N)C(=O)O (stereo unspecified)
4. CC(C)C(NC(=O)OCC1c2ccccc2-c2ccccc21)C(=O)NC(CCC(=O)OC(C)(C)C)C(=O)OC(C)(C)C (stereo unspecified) (Fmoc-Val-Glu(OtBu)-OtBu; configuration not given here)
5. CCOC(=O)c1cnc(N(C)C)nc1SC(=N)N
6. OC12c3ccccc3C1CCCCC2N1CCCC1 (stereo unspecified)

Solution:
1. > 100 µM
2. > 100 µM
3. > 100 µM
4. > 100 µM
5. > 100 µM
6. > 100 µM

// input: 4 molecules below; output: TGI for each
1. OC1(C(Sc2cc(C(F)(F)F)cc(C(F)(F)F)c2)Sc2cc(C(F)(F)F)cc(C(F)(F)F)c2)C=CCCC1 (stereo unspecified)
2. COc1ccc2c3c1OC1C(F)C=CC4(O)C(C2)NCCC314 (stereo unspecified)
3. C[C@@H](Oc1cc(-n2cnc3ccc(OC4CCN(C)CC4)cc32)sc1C(N)=O)c1ccccc1Cl
4. C=C(CCCCC)CN1CCCC1C(C)=O (stereo unspecified)

Solution:
5.77 µM
10.8 µM
9.19 µM
> 85.4 µM

###

Test system: SW-620 colon
Test: NCI tumour cell line growth inhibition, 48 h; in the data active = GI50 below about 0.43 µM; inactive = the rest
Valid outcomes are listed here; reply with one: class 1 for active, class 0 for inactive

Please review the following examples before continuing.
INSERT INTO measurements (compound, class_label) VALUES
  ('CCCCCCCCCCCCCCCC1=NCC[N+]1(CCO)CCO', 'class 0'),
  ('COc1ccc(C(=O)C(CN(C)C)CN(C)C)cc1', 'class 0'),
  ('COc1ccc2c(c1)C(=O)c1c-2n(CCCN(C)C)c(=O)c2ccccc12', 'class 1'),
  ('CCOC(=O)C1=CCCC[C@H]1S(=O)(=O)Nc1ccc(F)cc1Cl', 'class 0'),
  ('CN1C=c2c3c(ccc2=C2C=CC4C=C5OCOC5=CC4=C21)OCO3 (stereo unspecified)', 'class 0');

Next:
Problem: Hey, what did the test say about Cc1ccc(O)c(NC(=O)c2cccc(Nc3ccnc(C(F)(F)F)c3)c2)c1 ?
Solution: class 0

###

System: NCI-H460 lung
Output constraint: value belongs to active, inactive

Example entries and their recorded answers appear below.
INSERT INTO assay_data (compound, class_label) VALUES
  ('O=c1c2c(nc3n1CCS3)[nH]c1cc([N+](=O)[O-])ccc12', 'inactive'),
  ('CC(C)(C)C(=O)OCOP(=O)(NCc1ccccc1)C1CCCN(O)C1=O (stereo not drawn)', 'inactive'),
  ('COc1ccc2c(c1)C(=O)c1c-2n(CCCN(C)C)c(=O)c2ccccc12', 'active'),
  ('COc1ccc(C2(Cl)c3ccccc3N(c3ccccc3)c3ccccc32)cc1', 'inactive'),
  ('Cc1cnc2n1S(=O)(=O)c1cc(C(=O)Nc3cccc4nsnc34)c(Cl)cc1S2', 'inactive'),
  ('O=C1Nc2c(ccc(Cl)c2Cl)/C1=C/c1cc(Br)c(O)c(Br)c1', 'inactive');

Problem: Assay result, entry CC(C)C[C@H](NC(=O)CNC(=O)c1cc(Cl)ccc1Cl)B(O)O — outcome?
Solution: active

Problem: Which outcome was assigned to O=C1NC(=C(Cl)Cl)/C(=N/S(=O)(=O)N2CCCCC2)N1 in this test?
Solution: inactive

###

System: MOLT-4 leukemia
Assay: NCI tumour cell line growth inhibition, 48 h; in the data active means GI50 below about 0.43 µM; inactive means the rest
Output constraint: value belongs to t = active, f = inactive

Problem: Can you look up the reported call for CN[C@H]1CN(c2ccc3c(=O)c(C(=O)O)cn(-c4nccs4)c3n2)C[C@@H]1OC for me?
Solution: t

Problem: What call does the record list for COc1ccccc1Nc1cc(O)c2c(=O)cc(-c3ccccc3)oc2c1 ?
Solution: f

Problem: Which outcome was entered for the compound Cc1cc2c(C(=O)NC[C@H](C)c3ccccc3)c(O)c(O)cc2c(O)c1-c1c(C)cc2c(C(=O)NC[C@H](C)c3ccccc3)c(O)c(O)cc2c1O in this test?
Solution: t

Problem: Name the outcome recorded for COc1cc(/C=C/c2cc(/C=C/c3ccc(O)c(OC)c3)n(C(=O)c3ccc(Cl)cc3)n2)ccc1O in the assay.
Solution: f

###

Test system: CAKI-1 renal
Test: NCI tumour cell line growth inhibition, 48 h; in the data active = GI50 below about 0.43 µM; inactive = the rest
# valid calls are active, inactive; nothing else

INSERT INTO results (compound, system_under_test, class_label) VALUES
  ('CC(C)C[C@H](NC(=O)CNC(=O)c1cc(Cl)ccc1Cl)B(O)O', 'CAKI-1 renal', 'active'),
  ('CC(=O)O[C@@H]1C2CCC3C(CC[C@@]4(C)C3CC[C@@H]4C(C)N(C)C)[C@@]2(C)CC[C@@H]1NC(=O)C=C(C)C (stereo partly specified)', 'CAKI-1 renal', 'inactive'),
  ('CC(C)(C)C(=O)OCOP(=O)(NCc1ccccc1)C1CCCN(O)C1=O (stereo unspecified)', 'CAKI-1 renal', 'inactive'),
  ('O=C(NCCCCN1CCOCC1)c1cc2ccccc2o1', 'CAKI-1 renal', 'inactive'),
  ('COc1cc2c(cc1OC(C)C)[C@H](c1ccc(Cl)cc1)N(c1ccc(N(C)CC3CCC(N4CCN(C)C(=O)C4)CC3)cc1)C(=O)C2 (stereo partly specified)', 'CAKI-1 renal', 'active');

# ---- query compound ----
Problem: Test call for this compound, please: Oc1c(Cl)cc(Cl)c(Cl)c1CNCCNCc1c(O)c(Cl)cc(Cl)c1Cl
Solution: inactive

###

Test system: EKVX NSCLC
Assay: NCI tumour cell line growth inhibition, 48 h
READOUT KIND: TGI

INSERT INTO results (compound, observed) VALUES
  ('O=c1c2cc(-c3ccccc3)cnc2sn1-c1ccc(Br)cc1', '> 100 µM'),
  ('COc1ccc2c3c1OC1C(F)C=CC4(O)C(C2)NCCC314 (stereo unspecified)', '11 µM'),
  ('COC(COC(N)=O)C1=C(N2CC2)C(=O)C(C)=C(N2CC2)C1=O (stereo unspecified)', '1.24 µM');

Dear colleague, could you please provide TGI for the compounds listed below?
1. COC(=O)[C@]12CC3C=CC1N(C3)C(CBr)c1c2n(S(=O)(=O)c2ccccc2)c2ccccc12 (stereo partly specified)
2. N#CC12C(=O)NC(=O)C1(C#N)C1C=CC2CC1 (stereo unspecified)
3. COC1CCC(OS(C)(=O)=O)C(CO)O1 (stereo unspecified)

Solution:
["> 100 µM", "> 100 µM", "> 100 µM"]

###

Tested on: SF-268 CNS
Assay: NCI tumour cell line growth inhibition, 48 h
READOUT KIND: TGI

Solved cases below.
INSERT INTO assay_data (compound, system_under_test, readout_kind, observed) VALUES
  ('Cc1c(C)c2ccc3oc4ccccc4c3c2oc1=O', 'SF-268 CNS', 'TGI', '> 100 µM'),
  ('CCCCN1C(=O)C2Cc3c([nH]c4ccccc34)C(c3cccc(O)c3)N2C1=O (centres undefined)', 'SF-268 CNS', 'TGI', '34.7 µM'),
  ('CC(=O)OC[C@H]1CN(OC(C)=O)C[C@@H](n2cc(C)c(=O)[nH]c2=O)O1', 'SF-268 CNS', 'TGI', '> 100 µM'),
  ('CCOc1cc(C2CC(c3ccc(NS(=O)(=O)c4cc([N+](=O)[O-])ccc4C)cc3)=NN2S(=O)(=O)c2cc([N+](=O)[O-])ccc2C)ccc1O (centres undefined)', 'SF-268 CNS', 'TGI', '> 100 µM'),
  ('NCCSSCc1ccccc1CSSCCN', 'SF-268 CNS', 'TGI', '> 100 µM'),
  ('COc1ccc2c(c1)C(=O)c1c-2n(CCCN(C)C)c(=O)c2ccccc12', 'SF-268 CNS', 'TGI', '2.84 µM'),
  ('CC(=O)Nc1ccc2c(c1)/C(=C\c1ccc([N+](C)(C)C)cc1)c1ccccc1-2', 'SF-268 CNS', 'TGI', '> 100 µM'),
  ('Cc1ccc(C)c(N2C(=O)C(=O)C(c3nc4ccccc4s3)/C(=N/N)C2=O)c1 (centres undefined)', 'SF-268 CNS', 'TGI', '> 100 µM');

Here is another compound to look at.
Problem: Please give the measured TGI for this compound: Cc1c2ccccc2c(C2C3C(=O)N(c4ccc(Br)cc4)C(=O)C3ON2C(C(N)=O)c2ccccc2)c2ccccc12 (centres undefined)
Solution: > 100 µM
